# testTarget: ERRγ (Homo sapiens, UniProt P62508)
# Sequence (P62508 whole entry): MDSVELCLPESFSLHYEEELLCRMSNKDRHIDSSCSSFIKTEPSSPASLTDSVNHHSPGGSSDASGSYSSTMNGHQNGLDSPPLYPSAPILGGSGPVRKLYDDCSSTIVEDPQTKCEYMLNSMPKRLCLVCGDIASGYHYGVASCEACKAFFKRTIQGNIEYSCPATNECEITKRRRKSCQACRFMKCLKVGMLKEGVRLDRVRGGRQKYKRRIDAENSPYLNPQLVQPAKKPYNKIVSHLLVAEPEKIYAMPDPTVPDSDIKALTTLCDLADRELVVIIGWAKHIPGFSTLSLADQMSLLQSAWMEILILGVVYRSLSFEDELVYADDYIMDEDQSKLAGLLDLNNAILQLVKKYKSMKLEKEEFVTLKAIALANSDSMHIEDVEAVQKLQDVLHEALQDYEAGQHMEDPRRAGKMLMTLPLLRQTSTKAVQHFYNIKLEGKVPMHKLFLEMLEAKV
# assayRemarks: ERRE luciferase reporter assay in HEK293 cells transfected with pcDNA3.1 ERRγ
# conditionNotes: HEK293 cells transfected with ERRE reporter construct and pcDNA3.1 ERRγ; compound for 24 hours; luciferase activity
pEC50: −log10 of the molar value.
In this section we review reported pEC50 values for a set of compounds.

Below: 6 compounds and their reported pEC50.
> print(dat)
                         molecularstring  attributemeasured  measuredvalue
1        COc1ccc(-c2nnc(-c3ccccc3)s2)cc1              pEC50         > 6.00
2          Cc1ccc(-c2nnc(-c3nccs3)s2)cc1              pEC50         > 6.00
3       Cc1ccc(-c2nnc(-c3ccccc3Cl)o2)cc1              pEC50         > 6.00
4  FC(F)(F)c1ccc(-c2nnc(-c3ccccn3)o2)cc1              pEC50         > 6.00
5     COc1cccc(-c2nnc(-c3ccc(C)cc3)o2)c1              pEC50         > 6.00
6          Cc1ccc(-c2nnc(-c3ccco3)o2)cc1              pEC50         > 6.00

Please look at the following compound next.
Hello, I am looking for reported pEC50 with ERRγ (Homo sapiens, UniProt P62508) for `O=[N+]([O-])c1c(Cl)cccc1-c1nnc(-c2ccccc2)o1` . Could you help?
5.30 to 6.00
